assay: Tmax in male ICR mouse at 1 mg/kg, iv administered as single dose measured upto 24 hrs by HPLC analysis; format: ADME, organism-based; details: in vivo
Reported Property: Tmax (min)
The reply should be a number in min, with the unit left off.

The compound identified as CN1CCC(NCc2c(OCc3ccc(Br)cc3)ccc3ccccc23)CC1 registered its Tmax at 4.8

---

assay: Half life in male ICR mouse at 1 mg/kg, iv administered as single dose measured upto 24 hrs by HPLC analysis; assay type: ADME, organism-based; settings: in vivo
Reported Property: half-life (h)
Write the value in h as a bare number.

Reported half-life ( CN1CCC(NCc2c(OCc3ccc(Br)cc3)ccc3ccccc23)CC1 ) = 3.57

---

assay: Inhibition of KNa 1.1 (unknown origin); design: species or system Homo sapiens
Reported Property: pIC50
Lab note — pIC50 values are minus log10 of concentrations in M.

Consider the following illustrative entries.
CCOc1ccccc1S(=O)(=O)N1CC(c2nc(-c3ccsc3)no2)C1 ... 5.68
C=C[C@H]1CN2CC[C@H]1C[C@@H]2[C@@H](O)c1ccnc2ccc(OC)cc12 ... 4.05

Proceed to the following item.
CC(C)COCC(CN(Cc1ccccc1)c1ccccc1)N1CCCC1 (stereo not drawn) has a reported pIC50 of 5.20

---

assay: Cmax in male ICR mouse at 1 mg/kg, iv administered as single dose measured upto 24 hrs by HPLC analysis; assay type: ADME, organism-based; details: in vivo
Reported Property: Cmax

The recorded Cmax for entry CN1CCC(NCc2c(OCc3ccc(Br)cc3)ccc3ccccc23)CC1 equals 25.4 ng/mL

---

target: Potassium channel subfamily T member 1 (Homo sapiens); test: Inhibition of wild type human KNa1.1 expressed in HEK293T cells by patch-clamp electrophysiology method; type: cell-based
// reported IC50 for each item listed
API: value field is a number in µM; no unit string.

CC(C)COCC(CN(Cc1ccccc1)c1ccccc1)N1CCCC1 (configuration not stated) ... 16.3

In the following, a different compound is considered.
Looking up c1ccc(COc2ccc3ccccc3c2CCC2CCNCC2)cc1 , I found its IC50 recorded as 3.43

---

assay: Drug concentration in male ICR mouse plasma at 10 mg/kg, iv measured after 2 hrs by LC-MS/MS analysis; format: ADME, organism-based
Reported Property: concentration at 2 h
A bare number is not enough; add the unit after it.

What the record says about c1ccc(COc2ccc3ccccc3c2CCC2CCNCC2)cc1 : concentration at 2 h is 605 ng/mL

---

test: MRT (0 to t) in male ICR mouse at 50 mg/kg, po administered as single dose measured upto 24 hrs by HPLC analysis; format: ADME, organism-based; conditions: in vivo
Reported Property: MRT last at 24 h (h)
Only the number, expressed in h, is required.

The recorded MRT last at 24 h for c1ccc(COc2ccc3ccccc3c2CCC2CCNCC2)cc1 is 4.96

---

experiment: MRT (0 to t) in male ICR mouse at 10 mg/kg, iv administered as single dose measured upto 24 hrs by HPLC analysis; assay type: ADME, organism-based; details: in vivo
Reported Property: MRT last at 24 h (h)
The reply should contain only the number, in h.

Recorded MRT last at 24 h (molecule c1ccc(COc2ccc3ccccc3c2CCC2CCNCC2)cc1 ): 3.12

---

assay: Drug concentration in male ICR mouse plasma at 50 mg/kg, po measured after 2 hrs by LC-MS/MS analysis; format: ADME, organism-based
Reported Property: concentration at 2 h (ng/mL)
Just the number please, in ng/mL, no unit attached.

Reported concentration at 2 h for c1ccc(COc2ccc3ccccc3c2CCC2CCNCC2)cc1 was 893

---

target: Potassium channel subfamily T member 1 (Homo sapiens, UniProt Q5JUK3); assay: Inhibition of human SLACK expressed in HEK293 cells
Sequence (Q5JUK3 whole entry): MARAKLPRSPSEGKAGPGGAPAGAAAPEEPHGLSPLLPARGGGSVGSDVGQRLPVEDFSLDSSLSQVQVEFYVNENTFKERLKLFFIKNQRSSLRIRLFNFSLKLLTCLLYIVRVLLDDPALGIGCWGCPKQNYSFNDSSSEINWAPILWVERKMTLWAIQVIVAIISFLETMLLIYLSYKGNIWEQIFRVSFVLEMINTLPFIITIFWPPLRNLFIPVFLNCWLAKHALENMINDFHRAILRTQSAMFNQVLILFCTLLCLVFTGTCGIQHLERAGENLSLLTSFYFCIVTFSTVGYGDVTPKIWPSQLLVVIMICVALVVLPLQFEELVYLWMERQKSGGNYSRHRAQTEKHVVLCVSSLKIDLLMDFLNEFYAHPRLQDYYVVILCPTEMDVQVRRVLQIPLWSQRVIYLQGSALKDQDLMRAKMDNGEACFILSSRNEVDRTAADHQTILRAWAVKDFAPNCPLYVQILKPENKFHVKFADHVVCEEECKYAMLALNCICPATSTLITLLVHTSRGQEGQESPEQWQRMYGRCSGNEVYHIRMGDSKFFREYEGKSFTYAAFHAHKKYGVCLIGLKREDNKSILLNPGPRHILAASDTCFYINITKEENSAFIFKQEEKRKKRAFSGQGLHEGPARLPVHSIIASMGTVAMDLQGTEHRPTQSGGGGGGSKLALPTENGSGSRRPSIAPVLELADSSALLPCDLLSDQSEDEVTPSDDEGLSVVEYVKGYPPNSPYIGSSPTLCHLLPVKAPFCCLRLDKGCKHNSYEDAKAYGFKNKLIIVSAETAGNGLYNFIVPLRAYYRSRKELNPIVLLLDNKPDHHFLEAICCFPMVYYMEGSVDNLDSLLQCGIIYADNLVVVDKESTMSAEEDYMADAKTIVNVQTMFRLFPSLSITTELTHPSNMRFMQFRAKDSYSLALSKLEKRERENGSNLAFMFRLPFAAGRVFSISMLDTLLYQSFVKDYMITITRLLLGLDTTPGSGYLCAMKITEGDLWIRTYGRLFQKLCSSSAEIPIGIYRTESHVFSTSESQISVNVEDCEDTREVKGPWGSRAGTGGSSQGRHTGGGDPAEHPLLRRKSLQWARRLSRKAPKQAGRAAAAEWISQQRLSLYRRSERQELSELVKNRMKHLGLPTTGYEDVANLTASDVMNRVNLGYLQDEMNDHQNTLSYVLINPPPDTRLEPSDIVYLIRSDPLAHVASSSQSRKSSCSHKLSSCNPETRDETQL
Reported Property: IC50 (nM)
Numeric only. Scale: nM

Let me check: COc1ccc(Cl)cc1NC(=O)CN1CCN(S(=O)(=O)N2CCC(C)CC2)CC1 , system Potassium channel subfamily T member 1 (Homo sapiens, UniProt Q5JUK3), measured IC50 is 1840

---

test: AUC (0 to t) in male ICR mouse at 1 mg/kg, iv administered as single dose measured upto 24 hrs by HPLC analysis; assay type: ADME, organism-based; conditions: in vivo
Reported Property: AUC(0-t) at 24 h (ng·h/mL)
Kindly provide the numeric value in ng·h/mL only, without the unit symbol.

For this molecule ( CN1CCC(NCc2c(OCc3ccc(Br)cc3)ccc3ccccc23)CC1 ), measured AUC(0-t) at 24 h is 62

---

experiment: AUC (0 to t) in male ICR mouse at 10 mg/kg, iv administered as single dose measured upto 24 hrs by HPLC analysis; assay type: ADME, organism-based; conditions: in vivo
Reported Property: AUC(0-t) at 24 h (ng·h/mL)
Number only, in ng·h/mL; omit the unit.

For c1ccc(COc2ccc3ccccc3c2CCC2CCNCC2)cc1 the compound record lists AUC(0-t) at 24 h as 4550

---

experiment: Drug concentration in male ICR mouse plasma at 50 mg/kg, po measured after 0.5 hrs by LC-MS/MS analysis; assay type: ADME, organism-based
Reported Property: concentration at 0.5 h (ng/mL)
# value in ng/mL; strip the unit string

GET /value?item= c1ccc(COc2ccc3ccccc3c2CCC2CCNCC2)cc1 &field=concentration at 0.5 h returns 1290

---

assay: Oral bioavailability in male ICR mouse at 50 mg/kg administered as single dose measured upto 24 hrs by HPLC analysis; assay type: ADME, organism-based; conditions: in vivo
Reported Property: bioavailability (%)
Give just the numeric value; % need not be written.

// bioavailability lookup, compound = c1ccc(COc2ccc3ccccc3c2CCC2CCNCC2)cc1 , result: 32.8

---

test: Cmax in male ICR mouse at 10 mg/kg, po administered as single dose measured upto 24 hrs by HPLC analysis; assay type: ADME, organism-based; conditions: in vivo
Reported Property: Cmax
Report as: number unit

The compound listed as CN1CCC(NCc2c(OCc3ccc(Br)cc3)ccc3ccccc23)CC1 has a reported Cmax of 43.8 ng/mL

---

experiment: Drug concentration in male ICR mouse plasma at 10 mg/kg, po measured after 0.5 hrs by LC-MS/MS analysis; type: ADME, organism-based
Reported Property: concentration at 0.5 h (ng/mL)
Give your result in ng/mL as a bare value.

concentration at 0.5 h in this record for CN1CCC(NCc2c(OCc3ccc(Br)cc3)ccc3ccccc23)CC1 : 32.4

---

assay: Drug concentration in male ICR mouse brain at 1 mg/kg, iv measured after 2 hrs by LC-MS/MS analysis; assay type: ADME, organism-based; conditions: read-out: Ct
Reported Property: concentration at 2 h (ng/mL)
Field format: number, assumed ng/mL, no unit text.

Reported concentration at 2 h for CN1CCC(NCc2c(OCc3ccc(Br)cc3)ccc3ccccc23)CC1 was 702

---

experiment: Ratio of drug concentration in male ICR mouse brain to plasma at 50 mg/kg, po measured after 0.5 hrs by LC-MS/MS analysis; assay type: ADME, organism-based; details: brain and plasma, read-out: BPR
Reported Property: Kp at 0.5 h

Measured Kp at 0.5 h, c1ccc(COc2ccc3ccccc3c2CCC2CCNCC2)cc1 : 0.47

---

assay: Drug concentration in male ICR mouse brain at 10 mg/kg, iv measured after 0.5 hrs by LC-MS/MS analysis; assay type: ADME, organism-based; details: read-out: Ct
Reported Property: concentration at 0.5 h
Hi, when you answer, please include the unit after the number. Thanks!

// sample c1ccc(COc2ccc3ccccc3c2CCC2CCNCC2)cc1 , its concentration at 0.5 h was 8010 ng/mL

---

experiment: Inhibition of KNa1.1 F327I mutant (unknown origin) expressed in HEK293T cells by patch-clamp electrophysiology method; type: cell-based; conditions: Homo sapiens, HEK-293T
Reported Property: IC50 (µM)
# unit: µM | format: bare number

Query c1ccc(COc2ccc3ccccc3c2CCC2CCNCC2)cc1 yields IC50 of 24.2
